# Tested on: Staphylococcus aureus
# assay method text: Antibacterial activity against Methicillin-resistant Staphylococcus aureus ATCC 43300 assessed as bacterial growth inhibition incubated for 20 to 24 hrs by microbroth serial dilution assay
# Type: functional
# run conditions: time 20-24 hrs
Flag rule - MIC less than 0.1 mg/L flags yes; the remaining entries get no.

>  <compound>
C=C[C@]1(C)C[C@@H](OC(=O)CSc2nc(N)nc3c2ncn3C(=O)Nc2ccc(C(C)=O)cc2)[C@@]2(C)C3C(=O)CC[C@@]3(CC[C@H]2C)[C@@H](C)[C@@H]1O (stereo not given in full)

>  <class>
no

$$$$
>  <compound>
C=C[C@]1(C)C[C@@H](OC(=O)CSc2nc(N)nc3c2ncn3C(=O)NCc2ccc([N+](=O)[O-])cc2)[C@@]2(C)C3C(=O)CC[C@@]3(CC[C@H]2C)[C@@H](C)[C@@H]1O (stereo not given in full)

>  <class>
no

$$$$
>  <compound>
C=C[C@]1(C)C[C@@H](OC(=O)CSc2nc(NC(=O)CNC3CCOCC3)nc3[nH]cnc23)[C@@]2(C)C3C(=O)CC[C@@]3(CC[C@H]2C)[C@@H](C)[C@@H]1O (stereo not given in full)

>  <class>
no

$$$$
>  <compound>
C=C[C@]1(C)C[C@@H](OC(=O)CSc2nc(NC(=O)CN3CCNCC3)nc3[nH]cnc23)[C@@]2(C)C3C(=O)CC[C@@]3(CC[C@H]2C)[C@@H](C)[C@@H]1O (stereo not given in full)

>  <class>
no

$$$$
>  <compound>
C=C[C@]1(C)C[C@@H](OC(=O)CSc2nc(N)nc3c2ncn3C(=O)NCc2ccc(OC)cc2)[C@@]2(C)C3C(=O)CC[C@@]3(CC[C@H]2C)[C@@H](C)[C@@H]1O (stereo not given in full)

>  <class>
yes

$$$$

Values were extracted from ChEMBL document CHEMBL5247680.
